- measurement.target: Aminopeptidase N (Plasmodium falciparum (isolate 3D7)) (UniProt O96935)
- Sequence (O96935 whole entry, looked up): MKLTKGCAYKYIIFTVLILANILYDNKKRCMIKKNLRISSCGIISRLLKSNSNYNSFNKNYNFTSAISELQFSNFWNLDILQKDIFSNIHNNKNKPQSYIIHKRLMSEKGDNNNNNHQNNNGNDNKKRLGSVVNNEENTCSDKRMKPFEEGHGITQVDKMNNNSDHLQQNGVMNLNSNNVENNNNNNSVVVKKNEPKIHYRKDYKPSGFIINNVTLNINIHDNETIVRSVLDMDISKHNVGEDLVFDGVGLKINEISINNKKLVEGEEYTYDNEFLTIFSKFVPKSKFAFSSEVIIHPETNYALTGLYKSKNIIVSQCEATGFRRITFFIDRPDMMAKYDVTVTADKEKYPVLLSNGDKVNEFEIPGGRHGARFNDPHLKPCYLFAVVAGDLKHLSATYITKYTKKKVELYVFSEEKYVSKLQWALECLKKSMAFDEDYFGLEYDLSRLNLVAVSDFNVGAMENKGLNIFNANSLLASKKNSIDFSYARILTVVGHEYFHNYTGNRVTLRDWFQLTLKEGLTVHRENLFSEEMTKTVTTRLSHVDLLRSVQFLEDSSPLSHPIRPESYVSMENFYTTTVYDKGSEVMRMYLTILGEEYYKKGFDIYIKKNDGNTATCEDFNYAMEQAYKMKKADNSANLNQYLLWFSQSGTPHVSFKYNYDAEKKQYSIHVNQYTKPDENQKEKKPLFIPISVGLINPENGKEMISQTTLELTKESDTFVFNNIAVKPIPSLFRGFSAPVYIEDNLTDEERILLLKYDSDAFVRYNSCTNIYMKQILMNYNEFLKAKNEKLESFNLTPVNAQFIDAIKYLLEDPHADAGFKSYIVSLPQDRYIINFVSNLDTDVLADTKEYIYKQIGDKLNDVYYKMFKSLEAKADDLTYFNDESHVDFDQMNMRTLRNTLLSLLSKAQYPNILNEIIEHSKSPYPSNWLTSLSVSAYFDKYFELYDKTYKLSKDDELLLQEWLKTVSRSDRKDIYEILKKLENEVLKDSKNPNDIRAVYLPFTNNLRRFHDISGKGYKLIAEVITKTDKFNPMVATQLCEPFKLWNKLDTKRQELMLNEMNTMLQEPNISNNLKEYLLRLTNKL
- assay.protocol: malaria alanyl aminopeptidase activity blockers – biochemical, fluorogenic H-Leu-NHMec substrate, 1536-well (AID 1445);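 further: plate controls were DMSO full reaction for no effect and no enzyme background for full effect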
- stated.conditions: recombinant M1AAP, H-Leu-NHMec fluorogenic kinetic assay; at 30 µM
The whole screen tested about 220,000 compounds, of which about 910 (0.41%) were called active.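 How the source made its calls: active means primary inhibition above the hit cutoff, then over 50% inhibition at one or more dose response concentrations (cut at about 23% in these data, passing the limit was not always enough); inconclusive means conflicting primary data, or primary hits not chosen for dose response; inactive means low primary inhibition, or under 50% at every dose.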 The sample holds actives, similar compounds and a random draw of the others, so the mix is not that of the screen. Entries with a potency or affinity are not part of this list.
Outcome codes: label 1 (active), label 0 (inactive)

>>> class("CN1C(=O)C(C(=O)NC(C)(C)C)C2c3ccccc3OC13CCCCC23 (stereo not given)")
"label 1"
>>> class("CCCc1ccc(OCc2ccc(C(=O)O)o2)c(OC)c1")
"label 0"
>>> class("CNC(=S)N/N=C(\\C)c1ccc2c(c1)OCO2")
"label 0"
>>> class("O=C(Nc1cccc2cccnc12)c1ccc2c(c1)OCCO2")
"label 0"
>>> class("C=CCSC1=N/C(=C\\c2cc(OCC)c(OC(C)=O)c([N+](=O)[O-])c2)C(=O)S1")
"label 0"
>>> class("CC1=C(C(=O)c2ccccc2)C(c2ccc(OC(F)F)cc2)NC(=S)N1 (stereo not given)")
"label 0"
>>> class("N=c1c(C(=O)NCc2ccco2)cc2c(=O)n3ccccc3nc2n1Cc1ccccc1")
"label 0"
>>> class("Cc1cccn2c(=O)c3cc(C(=O)NCc4cccnc4)c(=N)n(C(C)C)c3nc12")
"label 0"
>>> class("COc1ccccc1-c1c(C)oc2c(CN3CCN(C)CC3)c(O)ccc2c1=O")
"label 0"
>>> class("COc1cc(CNc2ccc(O)cc2)cc(Br)c1OCc1ccccc1F")
"label 0"
>>> class("CCCC1=[N+](CC(=O)c2ccccc2)CCn2c(C)ccc21")
"label 0"
>>> class("CCC(C)NCCCCOc1cc(C)cc(C(C)C)c1 (stereo not given)")
"label 0"
>>> class("COc1ccc(NC(=O)c2ccc(-c3ccccc3Cl)o2)cc1")
"label 0"
>>> class("O=C(c1nc2ccccn2c1CN1CCC(Cc2ccccc2)CC1)N1CCCC1")
"label 0"
>>> class("O=C1NCCCC1C(=O)N/N=C/c1cccc(Cl)c1 (stereo not given)")
"label 0"
>>> class("O=C(c1cnc2n(c1=O)CCS2)N(c1ccccc1)C1CCCCC1")
"label 0"
>>> class("Cc1oc2cc([N+](=O)[O-])c(O)c([N+](=O)[O-])c2c1C(=O)c1ccc(Cl)cc1")
"label 0"
>>> class("Cc1nnc2ccc(N3CCOCC3)nn12")
"label 0"
>>> class("CCCC1=[N+](CC)CCn2c(C)ccc21")
"label 1"
>>> class("CN1CCN(Cc2c(O)ccc3c(-c4ccccc4)cc(=O)oc23)CC1")
"label 0"
>>> class("COc1ccc(/C=C2\\N=C(SC)SC2=O)cc1OC")
"label 0"
>>> class("Cc1onc(-c2c(F)cccc2Cl)c1C(=O)Nc1ccc(S(=O)(=O)Nc2ncccn2)cc1")
"label 0"
>>> class("COc1ccc(OC)c(C(=O)c2c(C)oc3cc([N+](=O)[O-])c(O)c([N+](=O)[O-])c23)c1")
"label 0"
>>> class("CCOC(=O)c1cc(-c2csc(-c3cccc(Cl)c3)n2)on1")
"label 0"
>>> class("Cc1nc(/C(=N/O)C(N)=O)cs1")
"label 0"
>>> class("Cc1ccc(N2CC(C(=O)NCCCn3ccnc3)CC2=O)cc1 (stereo not given)")
"label 0"
>>> class("CC(C)C(=O)N1CCC(CN=CC2=C(O)CC(C)(C)CC2=O)CC1")
"label 0"
>>> class("CN(CC(=O)N1CCN(c2ccccn2)CC1)S(=O)(=O)c1cccc2nsnc12")
"label 0"
>>> class("COc1cc(/C=C(\\C#N)c2nc3ccccc3[nH]2)ccc1OC(=O)c1ccco1")
"label 0"
>>> class("Cc1ccc(CSCC(=O)N/N=C/c2sccc2C)cc1")
"label 0"
>>> class("Cc1cc(O)c(C=Nc2cccc(Cl)c2)c(=O)o1")
"label 0"
>>> class("COc1cccc(/C=C(/C#N)c2ccc(Cl)cc2)c1OCc1cccc(C(=O)O)c1")
"label 0"
>>> class("COc1ccc(C2OC(=O)CC2C(=O)NCc2ccc(Cl)cc2)cc1OC (stereo not given)")
"label 0"
>>> class("N=c1c(C(=O)NC2CCCC2)cc2c(=O)n3ccccc3nc2n1CCN1CCOCC1")
"label 0"
>>> class("Cc1ccc(NC(=O)c2cc(-c3ccco3)on2)cc1C")
"label 0"
>>> class("COC(=O)c1ccc(COc2ccc(/C=C(\\C#N)c3nc4ccccc4[nH]3)cc2OC)o1")
"label 0"
>>> class("COc1ccc(NC(=O)C2C(=O)N(C)C3(C)CC2c2ccccc2O3)cc1 (stereo not given)")
"label 0"
>>> class("Cn1c(=O)cc(SCC(=O)N2CCCC2)c2ccccc21")
"label 0"
>>> class("CCOc1cc(/C=C(/C#N)c2nc3ccccc3[nH]2)ccc1Oc1ccc([N+](=O)[O-])cn1")
"label 0"
>>> class("CCOc1cc(/C=C2\\N=C(SCC)SC2=O)cc([N+](=O)[O-])c1OC(C)=O")
"label 1"
